- STUDY_TARGET: human PDE4B1 (Homo sapiens)
- Construct: host or cells: Sf9 cells
- Sequence (Q07343 whole entry): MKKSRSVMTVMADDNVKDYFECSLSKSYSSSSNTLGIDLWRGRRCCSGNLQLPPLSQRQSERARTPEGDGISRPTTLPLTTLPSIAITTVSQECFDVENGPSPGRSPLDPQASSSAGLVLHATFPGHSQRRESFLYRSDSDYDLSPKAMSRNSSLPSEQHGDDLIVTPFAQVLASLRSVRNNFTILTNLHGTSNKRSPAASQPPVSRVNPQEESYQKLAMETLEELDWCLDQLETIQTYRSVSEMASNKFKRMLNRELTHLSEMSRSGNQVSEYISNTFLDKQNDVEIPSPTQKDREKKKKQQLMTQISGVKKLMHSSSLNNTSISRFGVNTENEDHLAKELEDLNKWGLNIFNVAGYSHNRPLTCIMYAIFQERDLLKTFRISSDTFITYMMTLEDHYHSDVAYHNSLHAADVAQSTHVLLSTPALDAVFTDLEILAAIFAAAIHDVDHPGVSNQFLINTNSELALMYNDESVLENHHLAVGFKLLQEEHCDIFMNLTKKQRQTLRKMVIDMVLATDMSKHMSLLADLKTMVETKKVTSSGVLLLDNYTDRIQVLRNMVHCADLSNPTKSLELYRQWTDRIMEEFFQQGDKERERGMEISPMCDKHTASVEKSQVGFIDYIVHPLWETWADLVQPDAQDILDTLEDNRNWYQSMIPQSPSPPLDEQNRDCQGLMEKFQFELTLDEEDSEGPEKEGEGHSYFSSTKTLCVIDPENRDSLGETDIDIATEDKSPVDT
- EXPERIMENT_SUMMARY: cAMP HTRF assay to determine the activity of hPDE4B1
- Assay type: biochemical
- PARTICULARS: inhibition of PDE4B at a test concentration of 1 μM
- Experimental: Biological Testing cAMP HTRF® Assay to Determine the Activity of hPDE4B1 The inhibiting effect of the compounds on the enzyme activity of human PDE4B1 was measured by the quantification of 5′-adenosine monophosphate (5′-AMP), which is formed from 3′,5′-cyclic adenosine monophosphate (cAMP). Human recombinant enzyme, expressed in Sf9 cells, and the HTRF (homogeneous time-resolved fluorescence) detection method were used in the assay. […]
Returns one of true (1) or false (0); true (1) when inhibition at 1 µM is >= 70%.

                                    compound                 study_target  group_label
 0  CN(C)c1ccnc(-c2cnc(-n3cc([S+](C)[O-])c4ccc(C(=O)N5CCOCC5)cc43)nc2)c1 (stereo not drawn)  human PDE4B1 (Homo sapiens)     true (1)
 1  COC(=O)CN(C)C(=O)c1ccc2c([S+](C)[O-])cn(-c3ncc(-c4ccccc4F)cn3)c2c1 (stereo not drawn)  human PDE4B1 (Homo sapiens)    false (0)
 2  C[S+]([O-])c1cn(-c2ncc(-c3cccc(CO)c3)cn2)c2cc(C(=O)N3CCOCC3)ccc12 (stereo not drawn)  human PDE4B1 (Homo sapiens)     true (1)
 3  C[S+]([O-])c1cn(-c2ncc(-c3ccnc(O)c3)cn2)c2cc(C(=O)N3CCOCC3)ccc12 (stereo not drawn)  human PDE4B1 (Homo sapiens)    false (0)
 4  C[S+]([O-])c1cn(-c2ncc(-c3ccccc3F)cn2)c2cc(C(=O)N3CCOCC3)ccc12 (stereo not drawn) [Example 1]  human PDE4B1 (Homo sapiens)     true (1)
 5  C[S+]([O-])c1cn(-c2ncc(-c3ccccc3F)cn2)c2cc(C(=O)N3CCCCC3CO)ccc12 (stereo not drawn)  human PDE4B1 (Homo sapiens)    false (0)
 6  C[S+]([O-])c1cn(-c2ncc(-c3ccccc3Cl)cn2)c2cc(C(=O)N3CCOCC3)ccc12 (stereo not drawn)  human PDE4B1 (Homo sapiens)     true (1)
 7  C[S+]([O-])c1cn(-c2ncc(-c3ccccc3F)cn2)c2cc(C(=O)N3CCC4(COC4)C3)ccc12 (stereo not drawn)  human PDE4B1 (Homo sapiens)    false (0)
 8  CS(=O)(=O)c1cn(-c2ncc(-c3ccccc3)cn2)c2cc(C(=O)N3CC[C@@H](N)C3)ccc12  human PDE4B1 (Homo sapiens)     true (1)
 9  C[S+]([O-])c1cn(-c2ncc(-c3cscn3)cn2)c2cc(C(=O)N3CCOCC3)ccc12 (stereo not drawn)  human PDE4B1 (Homo sapiens)     true (1)
10  CN(C(=O)c1ccc2c([S+](C)[O-])cn(-c3ncc(-c4ccccc4F)cn3)c2c1)C1CCNC1 (stereo not drawn)  human PDE4B1 (Homo sapiens)     true (1)
11  Cc1ccc(F)c(-c2cnc(-n3cc(S(C)(=O)=O)c4ccc(C(=O)N5CC[C@@H](N)C5)cc43)nc2)c1  human PDE4B1 (Homo sapiens)     true (1)
12  Cc1cccc(-c2cnc(-n3cc(S(C)(=O)=O)c4ccc(C(=O)N5CC[C@@H](N)C5)cc43)nc2)c1  human PDE4B1 (Homo sapiens)     true (1)
13  C[S+]([O-])c1cn(-c2ncc(-c3cccnn3)cn2)c2cc(C(=O)N3CCOCC3)ccc12 (stereo not drawn)  human PDE4B1 (Homo sapiens)    false (0)
